Target: T1, DGI-2 polypeptide (UniProt Q15004 1-111, limits assumed)
T1 construct: Soluble recombinant protein coated at 500 ng/well; vector tag of pIVEX2.3-MCS not described for this construct; also called KIAA0101
T1 sequence (looked up): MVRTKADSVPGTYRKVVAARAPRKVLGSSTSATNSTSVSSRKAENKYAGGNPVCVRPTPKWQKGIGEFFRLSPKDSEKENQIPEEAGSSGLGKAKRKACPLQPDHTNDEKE
Test: phage ELISA
Note to self: values exactly at 5 ratio are MET. So DGI-2/LDH at or above 5 ratio is MET, below is NOT MET.

QUERY: Hi, just wondering whether RPVVCLAGLTLAQFGWVFPGWRGWSAAAGAPVPYPDPLEPRP [DGI-2-20C-3-C1039] shows DGI-2/LDH of 5 ratio or higher.
RESULT: NOT MET

QUERY: Tell me whether DGI-2/LDH is at least 5 ratio here: VLGADAGMIWFMDGCGIRCRAAAGAPVPYPDPLEPRP [DGI-2-20R-4-E6]
RESULT: MET

QUERY: Exam item: decide whether the reported DGI-2/LDH for SRGMAEAQFSAWPVLAVFPLAAAGAPVPYPDPLEPRP [DGI-2-20F-PP-H8] is at least 5 ratio.
RESULT: NOT MET
